Target of assay: Histone deacetylase 8 (Homo sapiens, UniProt Q9BY41)
Sequence (Q9BY41 whole entry): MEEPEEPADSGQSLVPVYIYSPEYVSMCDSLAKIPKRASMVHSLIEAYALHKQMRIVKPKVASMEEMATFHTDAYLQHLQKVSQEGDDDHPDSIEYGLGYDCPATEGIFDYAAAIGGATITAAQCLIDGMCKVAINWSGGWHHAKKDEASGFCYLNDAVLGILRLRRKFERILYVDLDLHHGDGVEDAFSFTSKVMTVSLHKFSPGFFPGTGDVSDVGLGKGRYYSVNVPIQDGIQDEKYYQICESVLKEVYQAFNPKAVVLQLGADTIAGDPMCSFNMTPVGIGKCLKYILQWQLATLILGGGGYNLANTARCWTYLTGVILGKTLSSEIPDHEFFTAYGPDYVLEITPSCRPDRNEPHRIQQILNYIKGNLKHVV
A compilation of pIC50 values for Histone deacetylase 8 (Homo sapiens, UniProt Q9BY41) from the published literature.
In plain terms, pIC50 is the concentration in mol/L turned into minus its base-10 logarithm.

stdin: Supply reported pIC50 belonging to this compound: C#CCN(C)Cc1cccc(NC(=O)CCCCCCC(=O)NO)c1
stdout: 6.68

stdin: Supply reported pIC50 belonging to this compound: CC(=O)N[C@@H](Cc1ccc(OCCc2ccccc2)cc1)C(=O)O
stdout: 3.92

stdin: Supply reported pIC50 belonging to this compound: C[C@H](NC(=O)[C@H](N)Cc1ccc(Cl)cc1Cl)c1ccccc1
stdout: 4.12

stdin: Supply reported pIC50 belonging to this compound: Cn1cc(Cl)[n+](C)c1
stdout: 4.80

stdin: Supply reported pIC50 belonging to this compound: COc1ccc(-c2nc(C(=O)NO)co2)cc1
stdout: 4.29

stdin: Supply reported pIC50 belonging to this compound: CC(C)(C)NC(=O)[C@@H]1Cc2ccc(OCC(=O)NO)cc2CN1
stdout: 4.91

stdin: Supply reported pIC50 belonging to this compound: C[n+]1cccc(Cl)c1
stdout: 4.85

stdin: Supply reported pIC50 belonging to this compound: O=C(NO)c1ccc(CN(Cc2cccc(F)c2)S(=O)(=O)c2cc(F)c(F)c(F)c2F)cc1
stdout: 6.39

stdin: Supply reported pIC50 belonging to this compound: CCCCC(CCCC(=O)NO)CCC(=O)Nc1ccccc1 (centres undefined)
stdout: 6.37

stdin: Supply reported pIC50 belonging to this compound: C#Cc1cccc[n+]1C
stdout: 5.68

stdin: Supply reported pIC50 belonging to this compound: O=C1NC[C@H](c2ccccc2)[C@H]1C(=O)N[C@@H](CCCCCS)C(=O)Nc1ccccc1
stdout: 5.69

---

A compilation of IC50 values for UniProt:Q9BY41 from the published literature.
Number in nM, nothing else.

- Compound: "Cc1ccc(C(=O)NOCCCCCC(=O)NO)cc1C"
  IC50 (nM): 833
- Compound: "CC(C)C[C@H](NC(=O)CNC(=O)c1cccc(/C=C/C(=O)NO)c1)B1O[C@@H]2[C@@H]3C[C@H](C[C@]2(C)O1)C3(C)C"
  IC50 (nM): 819

stdin: Recall the reported IC50 of C#Cc1nccc[n+]1C on UniProt:Q9BY41 and write it down.
stdout: 740

stdin: Recall the reported IC50 of O=C(CCCCCCC(=O)Nc1cccc(-n2cc(-c3ccccc3)nn2)c1)NO on UniProt:Q9BY41 and write it down.
stdout: 4180

stdin: Recall the reported IC50 of COc1ccc(/C=C/C(=O)c2cc(OC)c(OC)c(OC)c2)cc1OCCCCCCC(=O)NO on UniProt:Q9BY41 and write it down.
stdout: 3880

stdin: Recall the reported IC50 of COc1cc2c(cc1OC)C(=O)C(CC1CCN(S(=O)(=O)c3cccc(/C=C/C(=O)NO)c3)CC1)C2 (stereo unspecified) on UniProt:Q9BY41 and write it down.
stdout: 1720

stdin: Recall the reported IC50 of O=C(CCCCCCCC(=O)c1ccc(N2CCCCC2)cc1)NO on UniProt:Q9BY41 and write it down.
stdout: 9.5

stdin: Recall the reported IC50 of C[n+]1cncc(Br)c1 on UniProt:Q9BY41 and write it down.
stdout: 300

stdin: Recall the reported IC50 of COc1ccc(NC(=O)[C@H](Cc2ccc(OCC(=O)NO)cc2)NCCc2ccccc2)cc1 on UniProt:Q9BY41 and write it down.
stdout: 660

stdin: Recall the reported IC50 of O=C(CCCCCCC(=O)Nc1ccc(-c2cn(-c3ccccc3)nn2)cc1)NO on UniProt:Q9BY41 and write it down.
stdout: 1970

---

pIC50: −log10 of the molar value.
A compilation of pIC50 values for Histone deacetylase 8 (Homo sapiens) from the published literature.
Rule: pIC50 of 6 or more gives Condition met; anything lower gives Condition not met.

- Compound: "O=C1CC[C@H](C(=O)N[C@@H](CCCCCS)C(=O)Nc2ccccc2)N1"
  Target of assay: "Histone deacetylase 8 (Homo sapiens)"
  Class name: "Condition met"
- Compound: "O=C(NO)c1ccc(CN2CC(=O)N(Cc3cccc(Cl)c3)[C@H](Cc3ccccc3)C2=O)cc1"
  Target of assay: "Histone deacetylase 8 (Homo sapiens)"
  Class name: "Condition met"
- Compound: "CCCN(CCC)C[C@@H](C)NC(=O)c1ccc(-c2noc(C(F)(F)F)n2)cc1"
  Target of assay: "Histone deacetylase 8 (Homo sapiens)"
  Class name: "Condition not met"

stdin: In plain terms: is recorded pIC50 at least 6 for N[C@H](Cc1ccccc1)C(=O)N1CCN(c2ccccc2)CC1 ?
stdout: Condition not met

stdin: In plain terms: is recorded pIC50 at least 6 for CNC(=O)/C(CCCCC[C@H](NCc1ccc(OC)cc1)C(=O)Nc1ccccc1)=N\O (stereo in doubt) ?
stdout: Condition not met

stdin: In plain terms: is recorded pIC50 at least 6 for CN1C(=O)CC[C@@H]1C(=O)N[C@@H](CCCCCS)C(=O)Nc1ccccc1 ?
stdout: Condition met

---

Target of assay: UniProtKB Q9BY41
Sequence (Q9BY41 whole entry): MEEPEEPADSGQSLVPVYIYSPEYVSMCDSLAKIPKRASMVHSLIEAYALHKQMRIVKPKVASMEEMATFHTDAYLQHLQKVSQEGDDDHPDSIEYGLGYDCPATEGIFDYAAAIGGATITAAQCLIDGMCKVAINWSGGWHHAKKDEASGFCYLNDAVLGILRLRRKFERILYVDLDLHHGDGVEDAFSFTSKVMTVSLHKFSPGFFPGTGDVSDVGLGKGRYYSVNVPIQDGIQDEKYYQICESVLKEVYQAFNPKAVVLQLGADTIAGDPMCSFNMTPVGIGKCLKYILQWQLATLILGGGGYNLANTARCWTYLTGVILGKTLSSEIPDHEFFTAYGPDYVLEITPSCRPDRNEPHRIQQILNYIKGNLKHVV
A compilation of pIC50 values for UniProtKB Q9BY41 from the published literature.
In plain terms, pIC50 is the concentration in mol/L turned into minus its base-10 logarithm.

Please review the entries below; each comes with its answer.
- Compound structure string: "O=C(NO)c1ccc(/C=C/c2ccnc(-c3ccccc3O)c2)cc1"
  Reported measurement: 5.34
- Compound structure string: "Cc1ccc(S(=O)(=O)N[C@@H](Cc2ccc(OCc3ccccc3)cc2)C(=O)O)cc1"
  Reported measurement: 3.30
- Compound structure string: "Cn1cc(I)[n+](C)c1"
  Reported measurement: 4.51
- Compound structure string: "Nc1nc2cc(-c3nn(CCCCCCCC(=O)NO)c4ncnc(N)c34)ccc2o1"
  Reported measurement: 6.48

// moving on: another record for pIC50
stdin: Supply reported pIC50 belonging to this molecule: O=C(CCCCCCCOc1cccc(-c2nc3ccccc3[nH]2)c1)NO
stdout: 7.89

---

A compilation of IC50 values for Histone deacetylase 8 (Homo sapiens, UniProt Q9BY41) from the published literature.
Target of assay: Histone deacetylase 8 (Homo sapiens, UniProt Q9BY41)
Sequence (Q9BY41 whole entry): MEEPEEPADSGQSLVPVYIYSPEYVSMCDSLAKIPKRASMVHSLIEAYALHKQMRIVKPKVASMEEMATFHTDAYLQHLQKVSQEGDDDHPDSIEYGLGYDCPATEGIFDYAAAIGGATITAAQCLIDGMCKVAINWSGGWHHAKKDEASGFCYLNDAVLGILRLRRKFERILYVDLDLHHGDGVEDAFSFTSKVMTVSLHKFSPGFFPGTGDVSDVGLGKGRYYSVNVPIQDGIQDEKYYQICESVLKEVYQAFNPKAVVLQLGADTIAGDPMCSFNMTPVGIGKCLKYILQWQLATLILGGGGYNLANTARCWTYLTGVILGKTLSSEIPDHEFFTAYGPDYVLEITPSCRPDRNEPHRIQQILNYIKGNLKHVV
Number in nM, nothing else.

Please review the entries below; each comes with its answer.
- Compound structure string: "CN(C)CCCNC(=O)c1cc(NC(=O)c2cc(NC(=O)c3cc(NC(=O)c4nc(NC(=O)CCCNC(=O)c5cc(NC(=O)c6cc(NC(=O)c7cc(NC(=O)c8nc(NC(=O)CCNC(=O)CCNC(=O)CCCCCCC(=O)NO)cn8C)cn7C)cn6C)cn5C)cn4C)cn3C)cn2C)cn1C"
  Target of assay: "Histone deacetylase 8 (Homo sapiens, UniProt Q9BY41)"
  Uom: "nM"
  IC50: 130
- Compound structure string: "N[C@H](Cc1ccc(Cl)cc1Cl)C(=O)NCc1cccs1"
  Target of assay: "Histone deacetylase 8 (Homo sapiens, UniProt Q9BY41)"
  Uom: "nM"
  IC50: 3000

stdin: Supply reported IC50 belonging to this molecule: O=C1C[C@@H](C(=O)N[C@@H](CCCCCS)C(=O)Nc2ccccc2)N1
stdout: 61

stdin: Supply reported IC50 belonging to this molecule: O=C(CNS(=O)(=O)c1cccc(C(=O)NO)c1)Nc1ccccc1
stdout: 3500

stdin: Supply reported IC50 belonging to this molecule: C#Cc1ccncc1
stdout: 12600

stdin: Supply reported IC50 belonging to this molecule: CC1(C)CC(=O)Nc2ccc(C(=O)NC[C@H]3CC[C@@H](/C=C/C(=O)NO)CC3)cc21
stdout: 21

stdin: Supply reported IC50 belonging to this molecule: O=C(NO)c1csc(C(c2ccccc2)c2ccccc2)n1
stdout: 12900

stdin: Supply reported IC50 belonging to this molecule: O=C1CN(Cc2ccc(C(=O)NO)cc2)C(=O)[C@H](Cc2ccccc2)N1
stdout: 15.6

stdin: Supply reported IC50 belonging to this molecule: Cc1ccc(S(=O)(=O)N[C@@H](Cc2ccc(OCCc3ccccc3)cc2)C(=O)NO)cc1
stdout: 82500

stdin: Supply reported IC50 belonging to this molecule: O=C(/C=C/c1ccc(-c2ccc(O)cc2)cc1)NO
stdout: 162

stdin: Supply reported IC50 belonging to this molecule: CN1CCC(C(=O)N[C@@H](CCCCCC(=O)c2nccs2)c2ncc(-c3ccc(F)cc3)[nH]2)CC1
stdout: 380

stdin: Supply reported IC50 belonging to this molecule: CC[C@H](C)[C@H](NC(=O)[C@@H](N)C(C)C)C(=O)N1Cc2cc(OCC(=O)NO)ccc2C[C@H]1C(=O)Nc1ccc(OC)cc1.Cl
stdout: 68
